Tested on: HeLa Kyoto;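 also: synchronized HeLa Kyoto cells (double thymidine block for G1/S, nocodazole release for mitosis), protein amounts in NP-40 versus SDS lysates quantified by mass spectrometry, three biological replicates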
Experiment: solubility change mitosis vs G1/S (difference of NP-40 vs SDS log2 ratios) (log2 ratio difference); higher = more soluble in mitosis
Overview of reported solubility change mitosis (log2) across a group of sequences:

{"Record sequence": "MAATFFGEVVKAPCRAGTEDEEEEEEGRRETPEDREVRLQLARKREVRLLRRQTKTSLEVSLLEKYPCSKFIIAIGNNAVAFLSSFVMNSGVWEEVGCAKLWNEWCRTTDTTHLSSTEAFCVFYHLKSNPSVFLCQCSCYVAEDQQYQWLEKVFGSCPRKNMQITILTCRHVTDYKTSESTGSLPSPFLRALKTQNFKDSACCPLLEQPNIVHDLPAAVLSYCQVWKIPAILYLCYTDVMKLDLITVEAFKPILSTRSLKGLVKNIPQSTEILKKLMTTNEIQSNIYT [PSMG1]", "solubility change mitosis (log2)": -0.142}
{"Record sequence": "MALTVDVAGPAPWGFRITGGRDFHTPIMVTKVAERGKAKDADLRPGDIIVAINGESAEGMLHAEAQSKIRQSPSPLRLQLDRSQATSPGQTNGDSSLEVLATRFQGSVRTYTESQSSLRSSYSSPTSLSPRAGSPFSPPPSSSSLTGEAAISRSFQSLACSPGLPAADRLSYSGRPGSRQAGLGRAGDSAVLVLPPSPGPRSSRPSMDSEGGSLLLDEDSEVFKMLQENREGRAAPRQSSSFRLLQEALEAEERGGTPAFLPSSLSPQSSLPASRALATPPKLHTCEKCSTSIANQAVRIQEGRYRHPGCYTCADCGLNLKMRGHFWVGDELYCEKHARQRYSAPATLSSRA [PDLIM2]", "solubility change mitosis (log2)": -0.043}
{"Record sequence": "MGQCVTKCKNPSSTLGSKNGDREPSNKSHSRRGAGHREEQVPPCGKPGGDILVNGTKKAEAATEACQLPTSSGDAGRESKSNAEESSLQRLEELFRRYKDEREDAILEEGMERFCNDLCVDPTEFRVLLLAWKFQAATMCKFTRKEFFDGCKAISADSIDGICARFPSLLTEAKQEDKFKDLYRFTFQFGLDSEEGQRSLHREIAIALWKLVFTQNNPPVLDQWLNFLTENPSGIKGISRDTWNMFLNFTQVIGPDLSNYSEDEAWPSLFDTFVEWEMERRKREGEGRGALSSGPEGLCPEEQT [DCUN1D3]", "solubility change mitosis (log2)": -0.131}
{"Record sequence": "MAQKRPACTLKPECVQQLLVCSQEAKKSAYCPYSHFPVGAALLTQEGRIFKGCNIENACYPLGICAERTAIQKAVSEGYKDFRAIAIASDMQDDFISPCGACRQVMREFGTNWPVYMTKPDGTYIVMTVQELLPSSFGPEDLQKTQ [CDA]", "solubility change mitosis (log2)": -0.0534}
{"Record sequence": "MAATGANAEKAESHNDCPVRLLNPNIAKMKEDILYHFNLTTSRHNFPALFGDVKFVCVGGSPSRMKAFIRCVGAELGLDCPGRDYPNICAGTDRYAMYKVGPVLSVSHGMGIPSISIMLHELIKLLYYARCSNVTIIRIGTSGGIGLEPGTVVITEQAVDTCFKAEFEQIVLGKRVIRKTDLNKKLVQELLLCSAELSEFTTVVGNTMCTLDFYEGQGRLDGALCSYTEKDKQAYLEAAYAAGVRNIEMESSVFAAMCSACGLQAAVVCVTLLNRLEGDQISSPRNVLSEYQQRPQRLVSYFIKKKLSKA [UPP1]", "solubility change mitosis (log2)": -0.279}
{"Record sequence": "MEEVREGHALGGGMEADGPASLQELPPSPRSPSPPPSPPPLPSPPSLPSPAAPEAPELPEPAQPSEAHARQLLLEEWGPLSGGLELPQRLTWKLLLLRRPLYRNLLRSPNPEGINIYEPAPPTGPTQRPLETLGNFRGWYIRTEKLQQNQSWTVKQQCVDLLAEGLWEELLDDEQPAITVMDWFEDSRLDACVYELHVWLLAADRRTVIAQHHVAPRTSGRGPPGRWVQVSHVFRHYGPGVRFIHFLHKAKNRMEPGGLRRTRVTDSSVSVQLRE [NCCRP1]", "solubility change mitosis (log2)": -0.0982}
{"Record sequence": "MTLESMMACCLSDEVKESKRINAEIEKQLRRDKRDARRELKLLLLGTGESGKSTFIKQMRIIHGAGYSEEDKRGFTKLVYQNIFTAMQAMIRAMETLKILYKYEQNKANALLIREVDVEKVTTFEHQYVSAIKTLWEDPGIQECYDRRREYQLSDSAKYYLTDVDRIATLGYLPTQQDVLRVRVPTTGIIEYPFDLENIIFRMVDVGGQRSERRKWIHCFENVTSIMFLVALSEYDQVLVESDNENRMEESKALFRTIITYPWFQNSSVILFLNKKDLLEDKILYSHLVDYFPEFDGPQRDAQAAREFILKMFVDLNPDSDKIIYSHFTCATDTENIRFVFAAVKDTILQLNLKEYNLV [GNA11]", "solubility change mitosis (log2)": -0.121}
{"Record sequence": "MARACLQAVKYLMFAFNLLFWLGGCGVLGVGIWLAATQGSFATLSSSFPSLSAANLLIITGAFVMAIGFVGCLGAIKENKCLLLTFFLLLLLVFLLEATIAILFFAYTDKIDRYAQQDLKKGLHLYGTQGNVGLTNAWSIIQTDFRCCGVSNYTDWFEVYNATRVPDSCCLEFSESCGLHAPGTWWKAPCYETVKVWLQENLLAVGIFGLCTALVQILGLTFAMTMYCQVVKADTYCA [TSPAN4]", "solubility change mitosis (log2)": 0.125}
{"Record sequence": "MSYGRPPPDVEGMTSLKVDNLTYRTSPDTLRRVFEKYGRVGDVYIPRDRYTKESRGFAFVRFHDKRDAEDAMDAMDGAVLDGRELRVQMARYGRPPDSHHSRRGPPPRRYGGGGYGRRSRSPRRRRRSRSRSRSRSRSRSRSRYSRSKSRSRTRSRSRSTSKSRSARRSKSKSSSVSRSRSRSRSRSRSRSPPPVSKRESKSRSRSKSPPKSPEEEGAVSS [SRSF2]", "solubility change mitosis (log2)": 0.24}
{"Record sequence": "MALLSRPALTLLLLLMAAVVRCQEQAQTTDWRATLKTIRNGVHKIDTYLNAALDLLGGEDGLCQYKCSDGSKPFPRYGYKPSPPNGCGSPLFGVHLNIGIPSLTKCCNQHDRCYETCGKSKNDCDEEFQYCLSKICRDVQKTLGLTQHVQACETTVELLFDSVIHLGCKPYLDSQRAACRCHYEEKTDL [PLA2G12A]", "solubility change mitosis (log2)": 0.347}
{"Record sequence": "MPGRAPLRTVPGALGAWLLGGLWAWTLCGLCSLGAVGAPRPCQAPQQWEGRQVMYQQSSGRNSRALLSYDGLNQRVRVLDERKALIPCKRLFEYILLYKDGVMFQIDQATKQCSKMTLTQPWDPLDIPQNSTFEDQYSIGGPQEQITVQEWSDRKSARSYETWIGIYTVKDCYPVQETFTINYSVILSTRFFDIQLGIKDPSVFTPPSTCQMAQLEKMSEDCSW [EPDR1]", "solubility change mitosis (log2)": -0.162}

Where do the numbers come from? From the supplement of paper PMC5998384.
